# Test system: COLO 205 colon
# Protocol: NCI-60 one-dose screen, 48 h (100 = growth as untreated, 0 = no growth, -100 = all killed)
# Details: 10 µM unless noted
This is part of a sample that, as a whole, favours compounds with a hit. Of some 83,000 tested, about 20% had one in any assay.
Recorded growth values for a group of compounds are listed next.
Form entry: value (%) — number only.

Look over these answered cases.
Molecule: C=C(CN1CC=CCC1)[C@@H]1CC[C@]2(CO)CC[C@]3(C)[C@H](CC[C@@H]4[C@@]5(C)CC[C@H](O)C(C)(C)[C@@H]5CC[C@]43C)[C@@H]12
growth / %: 108

Molecule: CCOC(=O)c1c(-c2ccc(Cl)cc2)c(C#N)c2c(C#N)c(N)nn2c1N
growth / %: 69.8

Molecule: COc1ccc2c(c1)c(-c1nonc1-c1cn(C)c3ccc(OC)cc13)cn2C
growth / %: 32.9

Here is another compound to look at.
Challenge: # get_value(readout= growth, system= COLO 205 colon) for `CN1C(=O)/C(=C/c2ccc(C(=O)Nc3ncc(Cc4ccc(F)cc4)s3)cc2)SC1=S`
Response given: 72.3
